Test system: SK-MEL-28 melanoma
Assay: NCI tumour cell line growth inhibition, 48 h
Parameter: TGI (µM)
Numbers only here, please. The scale is µM.

[
  {
    "Compound": "C=C1CC(COc2ccc3c(C)c(C)c(=O)oc3c2C)(c2ccccc2)OC1=O (stereo not given)",
    "Units text": "µM",
    "Test result": 5.44
  },
  {
    "Compound": "CC(C)c1ccc2nc3ccc(C(=O)NCCN(C)C)cn3c(=O)c2c1",
    "Units text": "µM",
    "Test result": 32.4
  },
  {
    "Compound": "CCN(CCCCCCCCCCN1CC(=O)N(CCCCCCCCCCN(CC)Cc2ccccc2OC)CC1=O)Cc1ccccc1OC",
    "Units text": "µM",
    "Test result": 3.22
  }
]

Req: Using known records, supply TGI for "CS(=O)(=O)c1ccc(Cl)c([N+](=O)[O-])c1"
Resp: 32

Req: Using known records, supply TGI for COc1cc(/C=C2\CN(C)CC3=C2Nc2nc(SC)[nH]c(=O)c2C3c2cc(OC)c(OC)c(OC)c2)cc(OC)c1OC (stereo not given)
Resp: 4.29

Req: Using known records, supply TGI for "O=[N+]([O-])/C(Cl)=C(/C(Cl)=C(Cl)Cl)N1CCCCC1"
Resp: 30.3

====

Tested on: RXF 393 renal
Assay: NCI tumour cell line growth inhibition, 48 h
Class condition met: TGI at least 9 µM. Class condition not met: TGI below 9 µM.

[
  {
    "Molecule": "Nc1nncc2[nH]cnc12",
    "Group label": "condition met"
  },
  {
    "Molecule": "NC(N)=NS(=O)(=O)c1ccc(NC(=O)c2cccc3c(NNc4ccc(S(N)(=O)=O)cc4)c4ccccc4nc23)cc1",
    "Group label": "condition met"
  },
  {
    "Molecule": "CCCCCCCCCCCCNC(=O)CCC(NC(=O)c1ccc(N(C)Cc2cnc3nc(N)nc(N)c3n2)cc1)C(=O)NCCCCCCCCCCCC (centres undefined)",
    "Group label": "condition met"
  },
  {
    "Molecule": "O=c1ccn(-c2ccccn2)c(=O)n1-c1ccccn1",
    "Group label": "condition met"
  },
  {
    "Molecule": "Clc1ccc(OCc2nnc(COc3ccc(OCc4nnc(COc5ccc(Cl)cc5Cl)o4)c(Cl)c3)o2)c(Cl)c1",
    "Group label": "condition met"
  },
  {
    "Molecule": "CNC(=O)Nc1ccc(-c2nc(N3CCOCC3)nc3c2cnn3C2CCOCC2)cc1",
    "Group label": "condition not met"
  }
]

Req: Record "S=C(N/N=C/c1cc(Cl)cc(Cl)c1)NC12CC3CC(CC(C3)C1)C2" ; criterion: TGI no lower than 9 µM. Met?
Resp: condition met

Req: Record "Cc1cccc(NC(=O)c2sc3nc4c(cc3c2N)CCCC4)c1C" ; criterion: TGI no lower than 9 µM. Met?
Resp: condition not met

Req: Record "COc1cc(-c2oc3ccccc3c(=O)c2O)cc(OC)c1OC" ; criterion: TGI no lower than 9 µM. Met?
Resp: condition met

Req: Record "COc1ccc(C(=O)N2c3ccccc3Sc3ccccc32)c(F)c1" ; criterion: TGI no lower than 9 µM. Met?
Resp: condition met

Req: Record Cc1ccc(C(=O)/C(=C/c2ccc([N+](=O)[O-])cc2)S(=O)Cc2ccccc2)cc1 (centres undefined) ; criterion: TGI no lower than 9 µM. Met?
Resp: condition not met

Req: Record "CC[O-].CC[O-].O=C1C(=C([O-])c2ccccc2)C(=O)c2ccccc21.O=C1C(=C([O-])c2ccccc2)C(=O)c2ccccc21.[Ti+4]" ; criterion: TGI no lower than 9 µM. Met?
Resp: condition met

====

Listing: TGI of selected compounds
Test system: SK-MEL-28 melanoma
Assay: NCI tumour cell line growth inhibition, 48 h

Here are 8 compounds together with their reported answers.
[
  {
    "Compound": "C[C@]12CC[C@@H]3c4ccc(O)c([N+](=O)[O-])c4CC[C@H]3[C@@H]1CC[C@@H]2NS(=O)(=O)c1ccc(C(F)(F)F)cc1",
    "Test result": "3.66 µM"
  },
  {
    "Compound": "Cn1cc(C2=C(c3cn(C)c4ccc(N)cc34)C(=O)NC2=O)c2ccccc21",
    "Test result": "> 25 µM"
  },
  {
    "Compound": "CCCCCCc1cc2cc(-c3csc(-c4ccc(OC)cc4)n3)c(=O)oc2cc1O",
    "Test result": "24.6 µM"
  },
  {
    "Compound": "CC1(C)N=C(N)N=C(N)N1c1ccc(CCc2ccccc2)c(Cl)c1",
    "Test result": "15.9 µM"
  },
  {
    "Compound": "O=C(/C=C\\Nc1ccccc1O)C(F)(F)F",
    "Test result": "> 100 µM"
  },
  {
    "Compound": "S=C(N/N=C/c1cc(Cl)cc(Cl)c1)NC12CC3CC(CC(C3)C1)C2",
    "Test result": "> 100 µM"
  },
  {
    "Compound": "CCC(=O)Nc1ccc(NS(=O)(=O)c2ccc(Cl)cc2)cc1",
    "Test result": "> 100 µM"
  },
  {
    "Compound": "CCN1CCN(Cc2ccc(NC(=O)Nc3ccc(-n4ccc5c(NC(=O)c6ccccc6)nccc54)cc3)cc2C(F)(F)F)CC1",
    "Test result": "3.07 µM"
  }
]

Req: Recall the reported TGI of "Cc1cc(OCc2nnc3sc(NC(=O)c4ccccc4)nn23)ccc1Cl" on SK-MEL-28 melanoma and write it down.
Resp: > 100 µM

Req: Recall the reported TGI of "Cc1ccc(C(=O)Nc2ccc(CN3CCN(C)CC3)c(C(F)(F)F)c2)cc1C#Cc1cnc(N)c2ccc(F)cc12" on SK-MEL-28 melanoma and write it down.
Resp: 0.918 µM

Req: Recall the reported TGI of "O=C1/C(=C/c2ccc(Cl)cc2)CCCc2ccc(F)cc21" on SK-MEL-28 melanoma and write it down.
Resp: 40.9 µM

Req: Recall the reported TGI of "NC(N)=NS(=O)(=O)c1ccc(NC(=O)c2cccc3c(NNc4ccc(S(N)(=O)=O)cc4)c4ccccc4nc23)cc1" on SK-MEL-28 melanoma and write it down.
Resp: > 100 µM

====

Tested on: SK-OV-3 ovarian
Assay: NCI tumour cell line growth inhibition, 48 h
Listing: TGI of selected compounds

[
  {
    "Compound": "Nc1c(C(=O)Nc2ccc([As](=O)(O)O)cc2)cnc2nnnn12",
    "TGI": "> 100 µM"
  },
  {
    "Compound": "Cc1cc(O)c2c(c1)C(O)(c1ccc3c(c1O)C(=O)c1c(O)cc(C)cc1C3(O)C1OC(CO)C(O)C(O)C1O)c1cccc(O)c1C2=O (stereo not given)",
    "TGI": "31.4 µM"
  },
  {
    "Compound": "COc1ccc(C(=O)N2c3ccccc3Sc3ccccc32)c(F)c1",
    "TGI": "> 100 µM"
  },
  {
    "Compound": "COc1ccc(C2C(Cl)C(=O)N2n2cnc3ccccc3c2=O)cc1OC (stereo not given)",
    "TGI": "> 100 µM"
  },
  {
    "Compound": "COc1ccc(OC)c(NC(=O)C(=O)C(C(=O)c2ccccc2F)C2OC(=O)c3ccccc32)c1 (stereo not given)",
    "TGI": "> 100 µM"
  }
]

Req: Using known records, supply TGI for "Cn1nc2c(c1N)Cc1c(nn(C)c1N)-c1ccccc1-2"
Resp: > 100 µM

Req: Using known records, supply TGI for "O=CN1CCN(C(=O)c2ccco2)C1=S"
Resp: 70.8 µM

Req: Using known records, supply TGI for "CC1(C)N=C(N)N=C(N)N1c1cccc(OCc2cccc(N)c2)c1"
Resp: > 100 µM

Req: Using known records, supply TGI for COC(=O)c1ccc2c(c1)C(NC(C)=O)CCc1cc(OC)c(OC)c(OC)c1-2 (stereo not given)
Resp: 13.9 µM

Req: Using known records, supply TGI for "Cc1nc(SCC(N)=O)c2sc(=S)n(-c3ccccc3)c2n1"
Resp: > 10 µM

Req: Using known records, supply TGI for "COc1ccc2c(c1)-c1c(c3cc(OC)ccc3n1CCN(C)C)CC2"
Resp: 37.1 µM

Req: Using known records, supply TGI for CC(O)CNC1=CC(=O)C(=O)c2ccccc21 (stereo not given)
Resp: > 100 µM

Req: Using known records, supply TGI for "NS(=O)(=O)c1ccc(N2Cc3cc(Cl)ccc3OC3=C2C(=O)N(CC2CCCCC2)C3=O)cc1"
Resp: 4.26 µM

Req: Using known records, supply TGI for "CC(C)(C)OC(=O)NCC(C#N)CNC(=O)OC(C)(C)C"
Resp: > 100 µM
